targetDesc: T1, active human C1s purified from human serum (CompTech, Tyler, TX, catalog number A104) (human, UniProt P09871 16-437; P09871 438-688)
T1 construct: Serum-derived material, biotinylated for the ELISA; also called human active C1s; active C1s
T1 sequence 1: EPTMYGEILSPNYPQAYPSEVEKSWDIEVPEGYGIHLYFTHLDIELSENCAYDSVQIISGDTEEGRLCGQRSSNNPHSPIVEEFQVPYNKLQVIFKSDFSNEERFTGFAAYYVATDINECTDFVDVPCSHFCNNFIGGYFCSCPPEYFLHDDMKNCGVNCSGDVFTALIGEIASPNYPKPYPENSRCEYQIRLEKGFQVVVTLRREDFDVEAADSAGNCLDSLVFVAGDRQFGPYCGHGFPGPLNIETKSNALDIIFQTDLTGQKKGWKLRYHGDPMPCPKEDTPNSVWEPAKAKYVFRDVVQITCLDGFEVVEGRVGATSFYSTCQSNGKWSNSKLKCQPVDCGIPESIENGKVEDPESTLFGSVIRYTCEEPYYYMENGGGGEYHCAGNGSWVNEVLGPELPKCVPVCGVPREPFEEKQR
T1 sequence 2: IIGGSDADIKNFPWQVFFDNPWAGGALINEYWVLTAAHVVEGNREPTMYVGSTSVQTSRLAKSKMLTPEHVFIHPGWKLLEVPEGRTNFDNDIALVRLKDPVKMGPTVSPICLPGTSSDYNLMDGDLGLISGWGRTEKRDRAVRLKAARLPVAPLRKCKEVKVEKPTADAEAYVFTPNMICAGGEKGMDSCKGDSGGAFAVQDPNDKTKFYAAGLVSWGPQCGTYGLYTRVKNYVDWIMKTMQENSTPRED
protocolNotes: SPR, antibody captured via anti-human Fc, C1s in solution
endpointName: pKd
Please note pKd is a logarithmic value: minus log10 of concentration in mol/L. Answer with that number alone.

- MAB26 (antibody, V domains shown, IgG) VH: EVQLVESGGGVVRPGGSLRLSCAASGFTFDDYGMSWVRQAPGKGLEWVSGINWEGGSTGYADSVKGRFSISRDNAKNSLYLQMNSLRAEDTALYYCARDEQLGGLKYYYYYMDVWGKGTTVTVSS VL: DIQMTQSPSSLSASVGDRVTITCRASQGIRNDLGWYQQKPGKAPKRLIYTASNLQSGVPSRFSGSGSGTEFTLTISSLQPEDFATYYCLQTNIYPLTFGGGTKVEIK: 8.19

Record MAB25 (antibody, V domains shown, IgG) VH: EVQLVESGGGVVRPGGSLRLSCAASGFTFDDYGMSWVRQAPGKGLEWVSGINWEGGSTGYADSVKGRFTISRDNAKNSLYLQMNSLRAEDTALYYCARDEQLGGIKYYYYYMDVWGKGTTVTVSS VL: DIQMTQSPSSLSASVGDRVTITCRASQGIRNDLGWYQQKPGKAPKRLIYTASNLQSGVPSRFSGSGSGTEFTLTISSLQPEDFATYYCLQYKQYPLTFGGGTKVEIK , field pKd: 8.25
